Experimental target: T1, soluble form of human CD16A (sCD16A) (human, UniProt P08637 17-203)
T1 construct: CD16A gene truncated just prior to the transmembrane region, expressed in HEK-293; The last seven residues come from vector pCDNA3.1; also called sFcRIIIa
T1 sequence (P08637 other isoform, or with tags, fused parts or gaps limits assumed): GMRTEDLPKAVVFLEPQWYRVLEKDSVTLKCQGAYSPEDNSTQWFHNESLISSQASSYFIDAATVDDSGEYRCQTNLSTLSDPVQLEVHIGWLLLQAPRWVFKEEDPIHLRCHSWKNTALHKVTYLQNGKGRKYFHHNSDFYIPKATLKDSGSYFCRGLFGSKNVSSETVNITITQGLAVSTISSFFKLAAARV
Measurement notes: ELISA, sCD16A captured by mAb LNK-16

Binder | binding result
hu3G8VH-4/hu3G8VL-1 (antibody, V domains shown, Human Cγ1/Cκ constant regions; HEK-293) VH: QVTLRESGPALVKPTQTLTLTCTFSGFSLSTSGMGVGWIRQPPGKALEWLAHIWWDDDKRYNPALKSRLTISKDTSKNQVVLTMTNMDPVDTATYYCAQINPAWFDYWGQGTLVTVSS VL: DIVMTQSPDSLAVSLGERATINCKASQSVDFDGDSFMNWYQQKPGQPPKLLIYTTSNLESGVPDRFSGSGSGTDFTLTISSLQAEDVAVYYCQQSNEDPYTFGQGTKLEIK | binds
